Consider the following compounds; for each one, report its Salivary glands uptake.
# Tested on: FAP-expressing HEK293T:hFAP tumor xenografts
# PROTOCOL TEXT: Ex vivo biodistribution in HEK293T:hFAP tumor-bearing mice
# RUN CONDITIONS: 1 h post injection, mean ± SD, n = 4
Numbers only, in %ID/g.

Answered examples (2):
| COMPOUND | RESULT |
| --- | --- |
| N#C[C@@H]1CC(F)(F)CN1C(=O)CNC(=O)c1ccnc2ccc(OCc3cn(CC(=O)N[C@@H](CCCCNC(=O)CN4CCN(CC(=O)[O-])CCN(CC(=O)[O-])CCN(CC(=O)[O-])CC4)C(=O)NCC(=O)NC[C@H]4CC[C@H](C(=O)N[C@@H](Cc5c6ccccc6cc6ccccc56)C(=O)NCCCC[C@H](NC(=O)N[C@@H](CCC(=O)O)C(=O)O)C(=O)O)CC4)nn3)cc12.[68Ga+3] [[^68Ga]Ga-AV01038] | 4.02 |
| N#C[C@@H]1CC(F)(F)CN1C(=O)CNC(=O)c1ccnc2ccc(-c3cn(CC(=O)N[C@@H](CCCCNC(=O)CN4CCN(CC(=O)[O-])CCN(CC(=O)[O-])CCN(CC(=O)[O-])CC4)C(=O)NCC(=O)NC[C@H]4CC[C@H](C(=O)N[C@@H](Cc5c6ccccc6cc6ccccc56)C(=O)NCCCC[C@H](NC(=O)N[C@@H](CCC(=O)O)C(=O)O)C(=O)O)CC4)nn3)cc12.[68Ga+3] [[^68Ga]Ga-AV01030] | 7.01 |

Read the next record carefully.
query: Please look up its Salivary glands uptake: O=C([O-])CN1CCN(CC(=O)[O-])CCN(CC(=O)NC[C@H]2CC[C@H](C(=O)N[C@@H](Cc3c4ccccc4cc4ccccc34)C(=O)NCCCC[C@H](NC(=O)N[C@@H](CCC(=O)O)C(=O)O)C(=O)O)CC2)CCN(CC(=O)[O-])CC1.[68Ga+3] [[^68Ga]Ga-HTK03041, reference compound]
result: 2.29

----------
# Tested on: FAP-expressing HEK293T:hFAP tumor xenografts
# PROTOCOL TEXT: Ex vivo biodistribution in HEK293T:hFAP tumor-bearing mice
# RUN CONDITIONS: 1 h post injection, mean ± SD, n = 4
OBSERVED PROPERTY: Spleen uptake (%ID/g)
Answers are plain numbers, in %ID/g.

query: Tell me reported Spleen uptake for O=C([O-])CN1CCN(CC(=O)[O-])CCN(CC(=O)NC[C@H]2CC[C@H](C(=O)N[C@@H](Cc3c4ccccc4cc4ccccc34)C(=O)NCCCC[C@H](NC(=O)N[C@@H](CCC(=O)O)C(=O)O)C(=O)O)CC2)CCN(CC(=O)[O-])CC1.[68Ga+3] [[^68Ga]Ga-HTK03041, reference compound] , tested with FAP-expressing HEK293T:hFAP tumor xenografts.
result: 8.09

----------
# Test system: FAP-expressing HEK293T:hFAP tumor xenografts
# PROTOCOL TEXT: Ex vivo biodistribution in HEK293T:hFAP tumor-bearing mice
# RUN CONDITIONS: 1 h post injection, mean ± SD, n = 4
OBSERVED PROPERTY: Large Intestine uptake (%ID/g)
Numbers only, in %ID/g.

Answered examples (2):
| COMPOUND | Large Intestine uptake / %ID/g |
| --- | --- |
| N#C[C@@H]1CC(F)(F)CN1C(=O)CNC(=O)c1ccnc2ccc(OCCCc3cn(CC(=O)N[C@@H](CCCCNC(=O)CN4CCN(CC(=O)[O-])CCN(CC(=O)[O-])CCN(CC(=O)[O-])CC4)C(=O)NCC(=O)NC[C@H]4CC[C@H](C(=O)N[C@@H](Cc5c6ccccc6cc6ccccc56)C(=O)NCCCC[C@H](NC(=O)N[C@@H](CCC(=O)O)C(=O)O)C(=O)O)CC4)nn3)cc12.[68Ga+3] [[^68Ga]Ga-AV01017] | 1.44 |
| O=C([O-])CN1CCN(CC(=O)[O-])CCN(CC(=O)NC[C@H]2CC[C@H](C(=O)N[C@@H](Cc3c4ccccc4cc4ccccc34)C(=O)NCCCC[C@H](NC(=O)N[C@@H](CCC(=O)O)C(=O)O)C(=O)O)CC2)CCN(CC(=O)[O-])CC1.[68Ga+3] [[^68Ga]Ga-HTK03041, reference compound] | 0.43 |

Read the next record carefully.
query: Please look up its Large Intestine uptake: N#C[C@@H]1CC(F)(F)CN1C(=O)CNC(=O)c1ccnc2ccc(-c3cn(CC(=O)N[C@@H](CCCCNC(=O)CN4CCN(CC(=O)[O-])CCN(CC(=O)[O-])CCN(CC(=O)[O-])CC4)C(=O)NCC(=O)NC[C@H]4CC[C@H](C(=O)N[C@@H](Cc5c6ccccc6cc6ccccc56)C(=O)NCCCC[C@H](NC(=O)N[C@@H](CCC(=O)O)C(=O)O)C(=O)O)CC4)nn3)cc12.[68Ga+3] [[^68Ga]Ga-AV01030]
result: 1.15

----------
# System: PSMA-expressing LNCaP tumor xenografts
# PROTOCOL TEXT: Ex vivo biodistribution in LNCaP tumor-bearing mice
# RUN CONDITIONS: LNCaP tumor-bearing mice, 1 h post injection, mean ± SD, n = 4
Consider the following compounds; for each one, report its Testes uptake.
Lab note: write values as number then unit, every time.

Answered examples (3):
| COMPOUND | Testes uptake |
| --- | --- |
| N#C[C@@H]1CC(F)(F)CN1C(=O)CNC(=O)c1ccnc2ccc(OCCCc3cn(CC(=O)N[C@@H](CCCCNC(=O)CN4CCN(CC(=O)[O-])CCN(CC(=O)[O-])CCN(CC(=O)[O-])CC4)C(=O)NCC(=O)NC[C@H]4CC[C@H](C(=O)N[C@@H](Cc5c6ccccc6cc6ccccc56)C(=O)NCCCC[C@H](NC(=O)N[C@@H](CCC(=O)O)C(=O)O)C(=O)O)CC4)nn3)cc12.[68Ga+3] [[^68Ga]Ga-AV01017] | 0.69 ± 0.06 %ID/g |
| N#C[C@@H]1CC(F)(F)CN1C(=O)CNC(=O)c1ccnc2ccc(OCCCN3CCN(C(=O)CN4CCN(CC(=O)[O-])CCN(CC(=O)[O-])CCN(CC(=O)[O-])CC4)CC3)cc12.[68Ga+3] [[^68Ga]Ga-FAPI-04, reference compound] | 0.42 ± 0.04 %ID/g |
| N#C[C@@H]1CC(F)(F)CN1C(=O)CNC(=O)c1ccnc2ccc(-c3cn(CC(=O)N[C@@H](CCCCNC(=O)CN4CCN(CC(=O)[O-])CCN(CC(=O)[O-])CCN(CC(=O)[O-])CC4)C(=O)NCC(=O)NC[C@H]4CC[C@H](C(=O)N[C@@H](Cc5c6ccccc6cc6ccccc56)C(=O)NCCCC[C@H](NC(=O)N[C@@H](CCC(=O)O)C(=O)O)C(=O)O)CC4)nn3)cc12.[68Ga+3] [[^68Ga]Ga-AV01030] | 0.70 ± 0.08 %ID/g |

Read the next record carefully.
query: Please look up its Testes uptake: N#C[C@@H]1CC(F)(F)CN1C(=O)CNC(=O)c1ccnc2ccc(OCc3cn(CC(=O)N[C@@H](CCCCNC(=O)CN4CCN(CC(=O)[O-])CCN(CC(=O)[O-])CCN(CC(=O)[O-])CC4)C(=O)NCC(=O)NC[C@H]4CC[C@H](C(=O)N[C@@H](Cc5c6ccccc6cc6ccccc56)C(=O)NCCCC[C@H](NC(=O)N[C@@H](CCC(=O)O)C(=O)O)C(=O)O)CC4)nn3)cc12.[68Ga+3] [[^68Ga]Ga-AV01038]
result: 1.04 ± 0.10 %ID/g

----------
# System: FAP-expressing HEK293T:hFAP tumor xenografts
# PROTOCOL TEXT: Ex vivo biodistribution in HEK293T:hFAP tumor-bearing mice
# RUN CONDITIONS: 1 h post injection, mean ± SD, n = 4
Consider the following molecules; for each one, report its Tumor/bone uptake ratio.
Numbers only.

Answered examples (4):
| MOLECULE | RESULT |
| --- | --- |
| N#C[C@@H]1CC(F)(F)CN1C(=O)CNC(=O)c1ccnc2ccc(-c3cn(CC(=O)N[C@@H](CCCCNC(=O)CN4CCN(CC(=O)[O-])CCN(CC(=O)[O-])CCN(CC(=O)[O-])CC4)C(=O)NCC(=O)NC[C@H]4CC[C@H](C(=O)N[C@@H](Cc5c6ccccc6cc6ccccc56)C(=O)NCCCC[C@H](NC(=O)N[C@@H](CCC(=O)O)C(=O)O)C(=O)O)CC4)nn3)cc12.[68Ga+3] [[^68Ga]Ga-AV01030] | 1.04 |
| N#C[C@@H]1CC(F)(F)CN1C(=O)CNC(=O)c1ccnc2ccc(OCCCN3CCN(C(=O)CN4CCN(CC(=O)[O-])CCN(CC(=O)[O-])CCN(CC(=O)[O-])CC4)CC3)cc12.[68Ga+3] [[^68Ga]Ga-FAPI-04, reference compound] | 3.93 |
| N#C[C@@H]1CC(F)(F)CN1C(=O)CNC(=O)c1ccnc2ccc(OCCCc3cn(CC(=O)N[C@@H](CCCCNC(=O)CN4CCN(CC(=O)[O-])CCN(CC(=O)[O-])CCN(CC(=O)[O-])CC4)C(=O)NCC(=O)NC[C@H]4CC[C@H](C(=O)N[C@@H](Cc5c6ccccc6cc6ccccc56)C(=O)NCCCC[C@H](NC(=O)N[C@@H](CCC(=O)O)C(=O)O)C(=O)O)CC4)nn3)cc12.[68Ga+3] [[^68Ga]Ga-AV01017] | 0.44 |
| O=C([O-])CN1CCN(CC(=O)[O-])CCN(CC(=O)NC[C@H]2CC[C@H](C(=O)N[C@@H](Cc3c4ccccc4cc4ccccc34)C(=O)NCCCC[C@H](NC(=O)N[C@@H](CCC(=O)O)C(=O)O)C(=O)O)CC2)CCN(CC(=O)[O-])CC1.[68Ga+3] [[^68Ga]Ga-HTK03041, reference compound] | 1.39 |

Read the next record carefully.
query: Tell me reported Tumor/bone uptake ratio for N#C[C@@H]1CC(F)(F)CN1C(=O)CNC(=O)c1ccnc2ccc(OCc3cn(CC(=O)N[C@@H](CCCCNC(=O)CN4CCN(CC(=O)[O-])CCN(CC(=O)[O-])CCN(CC(=O)[O-])CC4)C(=O)NCC(=O)NC[C@H]4CC[C@H](C(=O)N[C@@H](Cc5c6ccccc6cc6ccccc56)C(=O)NCCCC[C@H](NC(=O)N[C@@H](CCC(=O)O)C(=O)O)C(=O)O)CC4)nn3)cc12.[68Ga+3] [[^68Ga]Ga-AV01038] , tested with FAP-expressing HEK293T:hFAP tumor xenografts.
result: 1.17

Each recorded value in this set is attributed to paper PMC9921851.
